B1: LINE1-full (parent)
chain: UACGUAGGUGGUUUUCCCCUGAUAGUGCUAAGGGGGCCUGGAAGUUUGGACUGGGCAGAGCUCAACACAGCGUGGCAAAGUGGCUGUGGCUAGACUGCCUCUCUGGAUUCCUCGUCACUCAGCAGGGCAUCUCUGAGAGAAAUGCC

Variants of: B1
Assay: self-cleavage, relative activity (ratio to wild type); higher = more cleavage; in vitro, sequencing; the parent is a self-cleaving ribozyme

{"mutation.label": "U9C A129G", "self-cleavage": 1.66}
{"mutation.label": "C16U A140U", "self-cleavage": 1.78}
{"mutation.label": "G34A A43G", "self-cleavage": 0.73}
{"mutation.label": "U46C C113U", "self-cleavage": 1.53}
{"mutation.label": "A31U C131U", "self-cleavage": 1.06}
{"mutation.label": "U20C C28A", "self-cleavage": 0.84}
{"mutation.label": "U87G A107G", "self-cleavage": 0}
{"mutation.label": "A77U A124C", "self-cleavage": 1.49}
{"mutation.label": "U96A G125U", "self-cleavage": 0.09}
{"mutation.label": "A43U A79U", "self-cleavage": 2.2}
{"mutation.label": "U73C C120A", "self-cleavage": 1.97}
{"mutation.label": "U134A A142G", "self-cleavage": 1.18}
{"mutation.label": "U1A A43U", "self-cleavage": 0.68}
{"mutation.label": "U26A A31U", "self-cleavage": 1.43}
{"mutation.label": "G114A A142G", "self-cleavage": 1.31}
{"mutation.label": "U62C U115C", "self-cleavage": 0.1}
{"mutation.label": "C113U U134A", "self-cleavage": 0.47}
{"mutation.label": "U104C A121U", "self-cleavage": 1.59}
{"mutation.label": "C51U A79G", "self-cleavage": 1.53}
{"mutation.label": "U91G G114C", "self-cleavage": 0.02}
{"mutation.label": "A92G C110U", "self-cleavage": 0.05}
{"mutation.label": "C19A A78G", "self-cleavage": 1.53}
{"mutation.label": "U85C A140U", "self-cleavage": 0.16}
{"mutation.label": "A42G U46A", "self-cleavage": 1.11}
{"mutation.label": "U1A A79U", "self-cleavage": 0.91}
{"mutation.label": "U13G A57G", "self-cleavage": 1.05}
{"mutation.label": "A57G A78U", "self-cleavage": 1.62}
{"mutation.label": "G49A A50G", "self-cleavage": 0.82}
{"mutation.label": "U14C A140U", "self-cleavage": 1.22}
{"mutation.label": "U29C A141G", "self-cleavage": 1.27}
{"mutation.label": "U100C A124G", "self-cleavage": 1.32}
{"mutation.label": "U5C C95G", "self-cleavage": 0.17}
{"mutation.label": "U13A A65G", "self-cleavage": 0.08}
{"mutation.label": "U14C G35C", "self-cleavage": 1.46}
{"mutation.label": "A2U A57C", "self-cleavage": 0.16}
{"mutation.label": "G72U U87A", "self-cleavage": 0.03}
{"mutation.label": "C17G U102A", "self-cleavage": 1.38}
{"mutation.label": "C71U A117U", "self-cleavage": 0.98}
{"mutation.label": "A64G A69U", "self-cleavage": 0.08}
{"mutation.label": "G74U U130C", "self-cleavage": 1.64}
{"mutation.label": "U5C A79G", "self-cleavage": 1.15}
{"mutation.label": "U13C C113A", "self-cleavage": 0.44}
{"mutation.label": "U1C U81G", "self-cleavage": 1.01}
{"mutation.label": "U73C C90U", "self-cleavage": 0.01}
{"mutation.label": "G41A U85C", "self-cleavage": 0.05}
{"mutation.label": "U26C U132A", "self-cleavage": 1.73}
{"mutation.label": "G41A A57U", "self-cleavage": 0.11}
{"mutation.label": "G97U U132A", "self-cleavage": 0.03}
{"mutation.label": "A24U C145U", "self-cleavage": 1.4}
{"mutation.label": "U115C A138U", "self-cleavage": 1.64}
{"mutation.label": "U29C C111U", "self-cleavage": 1.13}
{"mutation.label": "G11A A77G", "self-cleavage": 1.08}
{"mutation.label": "A24G A64G", "self-cleavage": 0.53}
{"mutation.label": "G25U A43C", "self-cleavage": 1.32}
{"mutation.label": "U47C U119C", "self-cleavage": 1.48}
{"mutation.label": "U14C A43G", "self-cleavage": 1.14}
{"mutation.label": "U109A G125A", "self-cleavage": 1.34}
{"mutation.label": "A69G A107U", "self-cleavage": 0}
{"mutation.label": "G75A U87C", "self-cleavage": 0.12}
{"mutation.label": "U5C A124C", "self-cleavage": 0.8}
{"mutation.label": "A43U U96A", "self-cleavage": 0.12}
{"mutation.label": "U47A A136U", "self-cleavage": 1.48}
{"mutation.label": "C38U U45C", "self-cleavage": 1.39}
{"mutation.label": "U14A A42G", "self-cleavage": 0.98}
{"mutation.label": "U47A A142G", "self-cleavage": 1.4}
{"mutation.label": "G40A G106A", "self-cleavage": 1.23}
{"mutation.label": "G7A A121G", "self-cleavage": 1.18}
{"mutation.label": "A22G U81A", "self-cleavage": 1.67}
{"mutation.label": "U14A U96G", "self-cleavage": 0}
{"mutation.label": "U14C U115A", "self-cleavage": 1.45}
{"mutation.label": "U115C A124G", "self-cleavage": 1.13}
{"mutation.label": "A6G U20A", "self-cleavage": 1.05}
{"mutation.label": "A140C", "self-cleavage": 0.65}
{"mutation.label": "U12C U102C", "self-cleavage": 1.18}
{"mutation.label": "G32A C113U", "self-cleavage": 1.43}
{"mutation.label": "A92U C120U", "self-cleavage": 0.78}
{"mutation.label": "G55A U85C", "self-cleavage": 0.06}
{"mutation.label": "U46A A121G", "self-cleavage": 1.15}
{"mutation.label": "U5A A69U", "self-cleavage": 0.09}
{"mutation.label": "C37U U39A", "self-cleavage": 1.12}
{"mutation.label": "A30C U52C", "self-cleavage": 0.33}
{"mutation.label": "A24G A79U", "self-cleavage": 1.59}
{"mutation.label": "U100C C131U", "self-cleavage": 2.27}
{"mutation.label": "U62G A138G", "self-cleavage": 0.09}
{"mutation.label": "A67U U91C", "self-cleavage": 0.05}
{"mutation.label": "U13A U100C", "self-cleavage": 1.28}
{"mutation.label": "U39G C123U", "self-cleavage": 0}

Taken from the RNAGym collection of RNA variant scans (doi:10.7554/elife.90254).
